tested-on: Grb2 SH2 (UniProt P62993)
Sequence (P62993 whole entry, looked up): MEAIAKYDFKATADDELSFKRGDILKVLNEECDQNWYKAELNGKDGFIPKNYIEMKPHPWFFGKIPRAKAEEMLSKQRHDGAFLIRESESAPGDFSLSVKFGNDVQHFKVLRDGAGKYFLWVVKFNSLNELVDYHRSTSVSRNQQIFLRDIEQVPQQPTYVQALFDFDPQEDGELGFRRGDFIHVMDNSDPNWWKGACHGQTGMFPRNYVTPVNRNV
method-summary: SH2 binding enrichment of the phosphorylated peptide, bacterial display (enrichment ratio); higher = better substrate or ligand; peptides without Tyr show the background
Record Y whenever SH2 binding enrichment is at 1 or higher; record N when lower.

biopolymer_sequence="NIKKEYAKMVQ [PMS2_Y181]" cat=N
biopolymer_sequence="PESCLYKESWI [IQGAP2_Y630_L635I]" cat=N
biopolymer_sequence="AEQDCYHGAIP [FER_Y461_W460C]" cat=N
biopolymer_sequence="SVQIVYKPVDL [MAPT_Y627]" cat=N
biopolymer_sequence="MGCVNYGAFIN [GLB1_Y485_R482C_YF]" cat=N
biopolymer_sequence="FQEPVYSVAFS [TBL1X_Y509_H504Y_YF]" cat=N
biopolymer_sequence="DSFSSYCNAVA [SLC20A2_Y436_YF]" cat=Y
biopolymer_sequence="SDVDLYQVRTA [PSMD9_Y70]" cat=N
biopolymer_sequence="CLMILHRLKER [PTPRR_Y249_Y249H]" cat=Y
biopolymer_sequence="TYVVLYDAELT [ERCC4_Y581_R576T]" cat=Y
biopolymer_sequence="REGKIYEFNQV [ZNF665_Y162_H157R_YF]" cat=N

====

tested-on: Fes (UniProt P07332)
Sequence (P07332 whole entry, looked up): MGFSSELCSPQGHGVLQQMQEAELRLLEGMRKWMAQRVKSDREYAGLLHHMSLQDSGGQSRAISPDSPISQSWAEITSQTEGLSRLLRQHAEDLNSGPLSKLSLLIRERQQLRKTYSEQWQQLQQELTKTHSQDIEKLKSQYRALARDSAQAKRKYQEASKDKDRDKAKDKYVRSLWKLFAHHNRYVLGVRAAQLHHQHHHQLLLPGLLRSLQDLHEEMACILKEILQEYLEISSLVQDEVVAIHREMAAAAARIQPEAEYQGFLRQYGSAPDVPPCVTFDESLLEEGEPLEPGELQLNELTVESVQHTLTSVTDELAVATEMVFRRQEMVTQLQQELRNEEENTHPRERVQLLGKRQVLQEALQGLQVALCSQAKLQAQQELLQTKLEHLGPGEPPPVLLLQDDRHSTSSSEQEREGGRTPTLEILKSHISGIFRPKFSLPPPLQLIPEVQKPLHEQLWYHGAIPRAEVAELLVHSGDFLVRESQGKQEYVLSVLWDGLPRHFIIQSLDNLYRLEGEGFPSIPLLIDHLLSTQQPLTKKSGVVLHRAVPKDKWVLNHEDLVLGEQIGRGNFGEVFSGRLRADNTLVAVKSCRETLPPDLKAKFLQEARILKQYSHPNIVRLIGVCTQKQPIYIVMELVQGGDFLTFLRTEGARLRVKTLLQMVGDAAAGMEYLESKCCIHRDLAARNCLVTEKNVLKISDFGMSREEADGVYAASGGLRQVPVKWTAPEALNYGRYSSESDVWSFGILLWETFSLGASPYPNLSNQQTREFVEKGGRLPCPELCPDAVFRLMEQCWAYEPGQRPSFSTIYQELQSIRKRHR
method-summary: phosphorylation enrichment, bacterial display (enrichment ratio); higher = better substrate or ligand; peptides without Tyr show the background
Record fulfilled whenever phosphorylation enrichment is at 1 or higher; record not fulfilled when lower.

biopolymer_sequence="TQIGQYGNGLK [MORC2_Y100]" cat="not fulfilled"
biopolymer_sequence="RSSPVYVGRVV [TGM2_Y219]" cat=fulfilled
biopolymer_sequence="VQNIVYHTASI [CYP39A1_Y102_R103H]" cat="not fulfilled"
biopolymer_sequence="KNKELYSDPFD [PDE10A_Y300_L303P]" cat="not fulfilled"
biopolymer_sequence="DMLTLYVNTAA [SMCHD1_Y403_Q400L]" cat=fulfilled
biopolymer_sequence="PIPAAYNKFDQ [CDC73_Y290_R292K_YF]" cat="not fulfilled"
biopolymer_sequence="RSFPSYFTSHV [NEFL_Y442_YF]" cat="not fulfilled"
biopolymer_sequence="QAKRKYQEVSK [FES_Y156_A159V]" cat="not fulfilled"
biopolymer_sequence="GRPMDYQVSIT [OTOF_Y254]" cat="not fulfilled"
biopolymer_sequence="SVQIVYKPVDL [MAPT_Y627]" cat=fulfilled
biopolymer_sequence="AQQPIYVRVEG [NLRP7_Y318]" cat="not fulfilled"
biopolymer_sequence="GGCQEYTGAPF [NAXD_Y85_YF]" cat=fulfilled
biopolymer_sequence="GQKVAYGGTGD [ALDH3A1_Y305]" cat="not fulfilled"
biopolymer_sequence="SVTCTDSPALN [TP53_Y126_Y126D]" cat=fulfilled
biopolymer_sequence="ILKPDYQPLAV [HYDIN_Y1072_I1077V]" cat="not fulfilled"
biopolymer_sequence="EATKGYPDDPT [G6PD_Y322_L323P]" cat=fulfilled
biopolymer_sequence="ECKEAYHEGEC [PRKN_Y372]" cat=fulfilled
biopolymer_sequence="TNYCLYLRSLE [MTM1_Y71_R69C]" cat=fulfilled
biopolymer_sequence="SMGMKYLEEKN [ZAP70_Y451]" cat="not fulfilled"
biopolymer_sequence="TYGVVYRAKDK [CDK11B_Y453]" cat=fulfilled
biopolymer_sequence="LNPLIYSLRNK [OR5R1_Y290]" cat=fulfilled
biopolymer_sequence="SFGENYDNSKS [MAN1B1_Y60]" cat="not fulfilled"
biopolymer_sequence="MSSLPYMKMIF [SLC4A11_Y853]" cat=fulfilled
biopolymer_sequence="SYPREYGSQEG [RBM10_Y48]" cat="not fulfilled"
biopolymer_sequence="LAARYYNWVCF [FLT4_Y1231_S1235C]" cat=fulfilled
biopolymer_sequence="STAPSYGNPSS [CD19_Y378_G373S]" cat="not fulfilled"
biopolymer_sequence="CEHRGFLYLAI [TEK_Y897_Y897F]" cat=fulfilled
biopolymer_sequence="IKNSGYISQYL [EIF2AK3_Y585_R588Q]" cat="not fulfilled"
biopolymer_sequence="EEQKRYYNAMK [SCN5A_Y1494_K1493R]" cat="not fulfilled"
